Every entry's value here was drawn from BindingDB's records for doi:10.1021/acschembio.6b00666.

target: L-ornithine N(5)-monooxygenase (Aspergillus fumigatus (strain ATCC MYA-4609 / CBS 101355 / FGSC A1100 / Af293)); assay: SidA Activity Assay; details: pH 7.5
Sequence (E9QYP0 whole entry): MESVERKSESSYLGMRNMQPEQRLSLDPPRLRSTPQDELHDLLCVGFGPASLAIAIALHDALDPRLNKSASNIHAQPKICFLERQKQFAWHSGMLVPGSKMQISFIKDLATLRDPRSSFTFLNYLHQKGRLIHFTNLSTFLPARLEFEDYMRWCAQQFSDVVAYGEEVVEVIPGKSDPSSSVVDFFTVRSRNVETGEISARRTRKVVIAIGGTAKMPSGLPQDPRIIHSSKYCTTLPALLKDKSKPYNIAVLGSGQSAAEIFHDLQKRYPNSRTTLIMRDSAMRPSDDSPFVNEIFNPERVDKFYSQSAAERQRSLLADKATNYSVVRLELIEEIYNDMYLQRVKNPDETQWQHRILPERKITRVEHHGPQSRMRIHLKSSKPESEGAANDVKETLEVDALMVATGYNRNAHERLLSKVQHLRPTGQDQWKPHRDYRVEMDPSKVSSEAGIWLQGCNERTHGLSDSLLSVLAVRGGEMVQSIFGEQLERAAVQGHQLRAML
property: IC50 (µM)
Unit µM implied. Number only.

Data request: Entry CC1=C(O)C(=O)C=C2C1=CC=C1[C@@]2(C)CC[C@@]2(C)[C@@H]3C[C@](C)(C(=O)O)CC[C@]3(C)CC[C@]12C [Celastrol] : reported IC50 = ?
Data returned: 11

----------
target: L-ornithine N(5)-monooxygenase (Aspergillus fumigatus (strain ATCC MYA-4609 / CBS 101355 / FGSC A1100 / Af293)); experiment: ADP-TAMRA Binding Assay; details: pH 7
property: pKd
// scale note: pKd = -log10(conc_M); give the bare number

Data request: Can you share its pKd? I mean this molecule: `CC1=C(O)C(=O)C=C2C1=CC=C1[C@@]2(C)CC[C@@]2(C)[C@@H]3C[C@](C)(C(=O)O)CC[C@]3(C)CC[C@]12C`
Data returned: 5.85
